Reference for the values: paper PMC12055641

System: S. aureus clinical strain 015N (MRSA)
Details: 24 h
Experimental: Clinical S. aureus strains were collected from patients with atopic dermatitis during their visits to the Outpatient Clinic and hospitalization in the Department of Dermatology, Venereology and Allergology at Medical University of Gdańsk (following the approval from the ethics committee, Approval Number NKBBN/242–477/2014). […] Minimum inhibitory concentrations (MICs) were determined according to the Clinical and Laboratory Standards Institute recommendations. […]
No end group written: not given here.
observable: MIC
Number plus unit, in that order.

Record summary for ILRWPWWPWRRK-NH2 [Omiganan Cl^−] : reported MIC = 16 mg/L

Record summary for ILRWPWWPWRRK-NH2 [Omiganan TFA^−] : reported MIC = 16 mg/L

Record summary for KRRWPWWPWRLI-NH2 [Retro-omiganan AcO^−] : reported MIC = 16 mg/L

Record summary for KRRWPWWPWRLI-NH2 [Retro-omiganan Cl^−] : reported MIC = 8 mg/L

Record summary for ILRWPWWPWRRK-NH2 [Omiganan AcO^−] : reported MIC = 8 mg/L

Record summary for KRRWPWWPWRLI-NH2 [Retro-omiganan TFA^−] : reported MIC = 8 mg/L

###

system: S. aureus clinical strain 004N (MRSA) biofilm; conditions: clinical strain 004N biofilm, 24 h
No end group written: not given here.
observable: MBIC (µg/mL)
// units = µg/mL; emit number, no label

Record summary for KRRWPWWPWRLI-NH2 [Retro-omiganan Cl^−] : reported MBIC = 16

Record summary for KRRWPWWPWRLI-NH2 [Retro-omiganan TFA^−] : reported MBIC = 16

Record summary for ILRWPWWPWRRK-NH2 [Omiganan Cl^−] : reported MBIC = 16

Record summary for ILRWPWWPWRRK-NH2 [Omiganan AcO^−] : reported MBIC = 8

Record summary for ILRWPWWPWRRK-NH2 [Omiganan TFA^−] : reported MBIC = 16

Record summary for KRRWPWWPWRLI-NH2 [Retro-omiganan AcO^−] : reported MBIC = 16

###

No end group written: not given here.
Measured MIC (S. aureus clinical strain 005S)
// units = mg/L; emit number, no label

Record summary for ILRWPWWPWRRK-NH2 [Omiganan AcO^−] : reported MIC = 1

Record summary for ILRWPWWPWRRK-NH2 [Omiganan TFA^−] : reported MIC = 1

Record summary for ILRWPWWPWRRK-NH2 [Omiganan Cl^−] : reported MIC = 1

Record summary for KRRWPWWPWRLI-NH2 [Retro-omiganan TFA^−] : reported MIC = 0.5

###

Tested on: S. aureus clinical strain 015N (MRSA) biofilm
Conditions: clinical strain 015N biofilm, 24 h
Procedure: Clinical S. aureus strains were collected from patients with atopic dermatitis during their visits to the Outpatient Clinic and hospitalization in the Department of Dermatology, Venereology and Allergology at Medical University of Gdańsk (following the approval from the ethics committee, Approval Number NKBBN/242–477/2014). […] Minimum inhibitory concentrations (MICs) were determined according to the Clinical and Laboratory Standards Institute recommendations. […]
No end group written: not given here.
observable: MBEC (µg/mL)
// units = µg/mL; emit number, no label

Observed MBEC on S. aureus clinical strain 015N (MRSA) biofilm, entry KRRWPWWPWRLI-NH2 [Retro-omiganan TFA^−] , equals 32

Observed MBEC on S. aureus clinical strain 015N (MRSA) biofilm, entry ILRWPWWPWRRK-NH2 [Omiganan AcO^−] , equals 32

Observed MBEC on S. aureus clinical strain 015N (MRSA) biofilm, entry KRRWPWWPWRLI-NH2 [Retro-omiganan Cl^−] , equals 32

Observed MBEC on S. aureus clinical strain 015N (MRSA) biofilm, entry ILRWPWWPWRRK-NH2 [Omiganan TFA^−] , equals 64

Observed MBEC on S. aureus clinical strain 015N (MRSA) biofilm, entry KRRWPWWPWRLI-NH2 [Retro-omiganan AcO^−] , equals 32

Observed MBEC on S. aureus clinical strain 015N (MRSA) biofilm, entry ILRWPWWPWRRK-NH2 [Omiganan Cl^−] , equals 64
